# targetOrTestSystem: T1, Recombinant extracellular domain of human FOLR1 (Novoprotein, Cat#: C784) (human, UniProt P15328 25-233, limits assumed)
# T1 construct: Bought reagent; also called recombinant FOLR1; immobilized FOLR1 extracellular domain
# T1 sequence (P15328 25-233 limits assumed): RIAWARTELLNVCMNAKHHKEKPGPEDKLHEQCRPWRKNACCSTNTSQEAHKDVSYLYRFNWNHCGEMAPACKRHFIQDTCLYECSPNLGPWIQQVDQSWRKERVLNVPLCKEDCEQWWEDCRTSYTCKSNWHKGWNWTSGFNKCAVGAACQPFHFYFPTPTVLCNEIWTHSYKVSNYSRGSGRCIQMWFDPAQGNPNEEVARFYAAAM
# protocolNotes: SPR (Biacore 8k), mAb captured on protein A chip, recombinant FOLR1 as analyte, 1:1 model
# Procedure: The interaction of the chimeric anti-FOLR1 mAbs and FOLR1 was measured by Surface Plasmon Resonance (SPR) (Biacore 8k, GE Healthcare). Briefly, an anti-FOLR1 mAb was immobilized to a protein A sensor chip (GE Healthcare, Cat#: 29-1275-56) in HBS-P buffer (0.01 M HEPES pH 7.4, 0.15 M NaCl, 0.05% v/v Surfactant P20) with an injection flow rate at […]. The recombinant FOLR1 (Novoprotein, Cat#: C784) at variant concentrations was loaded with the flow rate of 30 μL/min in HBS-P buffer. […]
pKd: −log10 of the molar value.
Outcome label depends on pKd relative to 9: at/above gives Satisfied, below gives Not satisfied.

Quick check, pKd >= 9? chimeric anti-FOLR1 mAb F19 (antibody, V domains shown, also called Chimeric mAb F19) VH: EVKLDETGGGLVQPGRPMKLSCVASGFTFSDYWMNWVRQSPDKGLEWVAQIGNKFHNYETYYSDSVKGRFTISRDDSKSSVYLQMNSLRVEDTGIYYCTKLGRGYYVMDYWGQGTSVTVSS VL: DIQMTQTTSSLSASLGDRVTLNCRASQDITNHLNWFQQKPDGTFQLLIYYTSRLHSGVPSRFSGSGSGTDYSLTISNLEQEDFATYFCQQDSQHPWTFGGGTKLEIK Not satisfied

Same for chimeric anti-FOLR1 mAb F5 (antibody, V domains shown, also called Chimeric mAb F5) VH: EVQLVESGGELVKPGGSLKLSCAVSGFTFSNYGMSWVRQTPDKRLEWVATISSGGSYTYYPDSVKGRFTISRDNDKNTLYLQMSSLKSEDTAMYYCSTQGSSGYVGYWGQGTTLTVSS VL: DIQMTQSPSSLSAFLGGKVTITCKASQDITNFIGWYQHKPGKGPRLLISYTSILESGIPSRFSGSGSGRDYSFSISNLEPEDIATYYCLQYYNLWTFGGGTKLEIK Satisfied

Cited source: patent US20210002363A1
